Reported ED50 values for a set of compounds
System: granulation tissue formation caused by implantation of cotton pellets
Assay: Granuloma formation test (local cotton pellet granuloma assay)
Assay type: in vivo, rat
Settings: dose causing 50% inhibition of granulation tissue weight
ASSAY ENDPOINT: ED50

compound=CCCOC(=O)O[C@]1(C(=O)OCCl)[C@H](C)C[C@H]2[C@@H]3CCC4=CC(=O)C=C[C@]4(C)[C@@]3(F)[C@@H](O)C[C@@]21C study_target="granulation tissue formation caused by implantation of cotton pellets" experimental_value="1.20 μg/pellet"
compound="CCC(=O)O[C@]1(C(=O)CCl)[C@@H](C)C[C@H]2[C@@H]3CCC4=CC(=O)C=C[C@]4(C)[C@@]3(F)[C@@H](O)C[C@@]21C [Clobetasol 17-propionate, reference compound]" study_target="granulation tissue formation caused by implantation of cotton pellets" experimental_value=">3 μg/pellet"
compound=CC(C)OC(=O)O[C@]1(C(=O)OCCl)CC[C@H]2[C@@H]3CCC4=CC(=O)CC[C@]4(C)[C@H]3[C@@H](O)C[C@@]21C study_target="granulation tissue formation caused by implantation of cotton pellets" experimental_value="460 μg/pellet"
compound=CCOC(=O)O[C@]1(C(=O)OCCl)[C@H](C)C[C@H]2[C@@H]3CCC4=CC(=O)C=C[C@]4(C)[C@@]3(F)[C@@H](O)C[C@@]21C study_target="granulation tissue formation caused by implantation of cotton pellets" experimental_value="1.07 μg/pellet"
